molecular target: human MOR (Homo sapiens, UniProt P35372); conditions: read-out: Agonist Activity EC50
Sequence (P35372 whole entry): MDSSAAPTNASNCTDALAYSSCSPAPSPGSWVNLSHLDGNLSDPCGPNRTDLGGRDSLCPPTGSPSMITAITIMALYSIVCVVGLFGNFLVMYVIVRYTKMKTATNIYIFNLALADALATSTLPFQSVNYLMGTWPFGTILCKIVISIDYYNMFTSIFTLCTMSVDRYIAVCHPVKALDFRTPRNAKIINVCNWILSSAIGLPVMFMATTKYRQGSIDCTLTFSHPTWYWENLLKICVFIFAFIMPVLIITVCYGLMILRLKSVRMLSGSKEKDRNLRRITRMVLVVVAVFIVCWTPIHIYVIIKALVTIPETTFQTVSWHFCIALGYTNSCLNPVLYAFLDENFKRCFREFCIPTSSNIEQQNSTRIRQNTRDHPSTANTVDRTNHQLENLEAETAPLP
reported endpoint: pEC50
Units for pEC50: none; it is -log10 of a concentration expressed in mol/L.

Provide human MOR (Homo sapiens, UniProt P35372) pEC50 reading for Cc1cc(O)cc(C)c1C[C@H](N)C(=O)N[C@H](CCCNC(=N)N)C(=O)N[C@H]1Cc2ccccc2CN(CCC(N)=O)C1=O .
10.00
